- System: T1, laminin-421 (human, UniProt Q16363 25-1823; P55268 33-1798; P11047 34-1609)
- T1 construct: Full-length recombinant human laminin isoform (BioLamina); chains read from the isoform name
- T1 sequence (Q16363 25-1823 limits assumed, chain 1 of 3): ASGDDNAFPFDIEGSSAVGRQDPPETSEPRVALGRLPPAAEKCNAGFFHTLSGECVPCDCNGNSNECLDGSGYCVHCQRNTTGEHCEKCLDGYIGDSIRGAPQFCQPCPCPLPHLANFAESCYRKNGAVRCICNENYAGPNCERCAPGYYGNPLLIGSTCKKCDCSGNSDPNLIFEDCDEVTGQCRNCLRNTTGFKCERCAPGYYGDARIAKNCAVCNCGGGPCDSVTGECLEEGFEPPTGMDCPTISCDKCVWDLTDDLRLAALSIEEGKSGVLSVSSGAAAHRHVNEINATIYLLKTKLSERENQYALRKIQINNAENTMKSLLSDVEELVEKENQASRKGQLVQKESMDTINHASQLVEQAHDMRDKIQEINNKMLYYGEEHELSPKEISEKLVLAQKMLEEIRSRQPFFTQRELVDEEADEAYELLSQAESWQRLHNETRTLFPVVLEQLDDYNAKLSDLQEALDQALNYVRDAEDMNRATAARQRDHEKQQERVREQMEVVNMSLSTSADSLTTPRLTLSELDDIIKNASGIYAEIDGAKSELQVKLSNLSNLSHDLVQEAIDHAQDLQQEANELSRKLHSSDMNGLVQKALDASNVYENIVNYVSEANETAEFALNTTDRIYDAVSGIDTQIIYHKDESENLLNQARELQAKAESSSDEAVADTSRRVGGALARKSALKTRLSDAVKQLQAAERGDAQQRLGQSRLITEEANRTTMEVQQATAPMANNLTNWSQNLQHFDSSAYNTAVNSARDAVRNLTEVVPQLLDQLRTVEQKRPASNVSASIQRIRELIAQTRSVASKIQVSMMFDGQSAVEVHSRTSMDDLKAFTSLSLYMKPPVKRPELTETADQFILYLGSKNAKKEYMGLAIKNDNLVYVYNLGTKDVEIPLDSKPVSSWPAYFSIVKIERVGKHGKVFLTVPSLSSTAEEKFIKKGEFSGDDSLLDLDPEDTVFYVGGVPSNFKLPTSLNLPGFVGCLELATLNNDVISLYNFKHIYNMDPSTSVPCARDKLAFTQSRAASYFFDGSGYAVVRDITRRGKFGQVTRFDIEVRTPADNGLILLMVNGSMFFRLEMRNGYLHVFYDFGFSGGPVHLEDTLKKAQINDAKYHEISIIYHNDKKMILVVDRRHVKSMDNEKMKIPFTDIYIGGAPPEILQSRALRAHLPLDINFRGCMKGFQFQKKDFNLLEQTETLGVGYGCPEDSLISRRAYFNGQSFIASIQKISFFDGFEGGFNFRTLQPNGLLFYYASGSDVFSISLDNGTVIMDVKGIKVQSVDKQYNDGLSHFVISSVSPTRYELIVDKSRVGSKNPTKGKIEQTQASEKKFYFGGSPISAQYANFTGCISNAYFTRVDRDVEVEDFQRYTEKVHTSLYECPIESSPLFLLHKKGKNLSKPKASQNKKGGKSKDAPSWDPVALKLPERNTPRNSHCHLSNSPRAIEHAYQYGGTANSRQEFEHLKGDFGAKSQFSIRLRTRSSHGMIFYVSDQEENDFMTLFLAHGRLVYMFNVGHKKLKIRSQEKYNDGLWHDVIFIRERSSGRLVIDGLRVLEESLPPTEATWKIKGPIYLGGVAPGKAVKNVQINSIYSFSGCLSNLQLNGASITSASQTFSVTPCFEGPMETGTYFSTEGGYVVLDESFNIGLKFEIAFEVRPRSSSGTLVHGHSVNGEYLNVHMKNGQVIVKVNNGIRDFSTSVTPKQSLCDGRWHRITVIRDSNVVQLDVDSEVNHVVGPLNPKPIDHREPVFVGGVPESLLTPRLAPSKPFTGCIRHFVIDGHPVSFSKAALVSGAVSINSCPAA
- T1 sequence (P55268 33-1798 limits assumed, chain 2 of 3): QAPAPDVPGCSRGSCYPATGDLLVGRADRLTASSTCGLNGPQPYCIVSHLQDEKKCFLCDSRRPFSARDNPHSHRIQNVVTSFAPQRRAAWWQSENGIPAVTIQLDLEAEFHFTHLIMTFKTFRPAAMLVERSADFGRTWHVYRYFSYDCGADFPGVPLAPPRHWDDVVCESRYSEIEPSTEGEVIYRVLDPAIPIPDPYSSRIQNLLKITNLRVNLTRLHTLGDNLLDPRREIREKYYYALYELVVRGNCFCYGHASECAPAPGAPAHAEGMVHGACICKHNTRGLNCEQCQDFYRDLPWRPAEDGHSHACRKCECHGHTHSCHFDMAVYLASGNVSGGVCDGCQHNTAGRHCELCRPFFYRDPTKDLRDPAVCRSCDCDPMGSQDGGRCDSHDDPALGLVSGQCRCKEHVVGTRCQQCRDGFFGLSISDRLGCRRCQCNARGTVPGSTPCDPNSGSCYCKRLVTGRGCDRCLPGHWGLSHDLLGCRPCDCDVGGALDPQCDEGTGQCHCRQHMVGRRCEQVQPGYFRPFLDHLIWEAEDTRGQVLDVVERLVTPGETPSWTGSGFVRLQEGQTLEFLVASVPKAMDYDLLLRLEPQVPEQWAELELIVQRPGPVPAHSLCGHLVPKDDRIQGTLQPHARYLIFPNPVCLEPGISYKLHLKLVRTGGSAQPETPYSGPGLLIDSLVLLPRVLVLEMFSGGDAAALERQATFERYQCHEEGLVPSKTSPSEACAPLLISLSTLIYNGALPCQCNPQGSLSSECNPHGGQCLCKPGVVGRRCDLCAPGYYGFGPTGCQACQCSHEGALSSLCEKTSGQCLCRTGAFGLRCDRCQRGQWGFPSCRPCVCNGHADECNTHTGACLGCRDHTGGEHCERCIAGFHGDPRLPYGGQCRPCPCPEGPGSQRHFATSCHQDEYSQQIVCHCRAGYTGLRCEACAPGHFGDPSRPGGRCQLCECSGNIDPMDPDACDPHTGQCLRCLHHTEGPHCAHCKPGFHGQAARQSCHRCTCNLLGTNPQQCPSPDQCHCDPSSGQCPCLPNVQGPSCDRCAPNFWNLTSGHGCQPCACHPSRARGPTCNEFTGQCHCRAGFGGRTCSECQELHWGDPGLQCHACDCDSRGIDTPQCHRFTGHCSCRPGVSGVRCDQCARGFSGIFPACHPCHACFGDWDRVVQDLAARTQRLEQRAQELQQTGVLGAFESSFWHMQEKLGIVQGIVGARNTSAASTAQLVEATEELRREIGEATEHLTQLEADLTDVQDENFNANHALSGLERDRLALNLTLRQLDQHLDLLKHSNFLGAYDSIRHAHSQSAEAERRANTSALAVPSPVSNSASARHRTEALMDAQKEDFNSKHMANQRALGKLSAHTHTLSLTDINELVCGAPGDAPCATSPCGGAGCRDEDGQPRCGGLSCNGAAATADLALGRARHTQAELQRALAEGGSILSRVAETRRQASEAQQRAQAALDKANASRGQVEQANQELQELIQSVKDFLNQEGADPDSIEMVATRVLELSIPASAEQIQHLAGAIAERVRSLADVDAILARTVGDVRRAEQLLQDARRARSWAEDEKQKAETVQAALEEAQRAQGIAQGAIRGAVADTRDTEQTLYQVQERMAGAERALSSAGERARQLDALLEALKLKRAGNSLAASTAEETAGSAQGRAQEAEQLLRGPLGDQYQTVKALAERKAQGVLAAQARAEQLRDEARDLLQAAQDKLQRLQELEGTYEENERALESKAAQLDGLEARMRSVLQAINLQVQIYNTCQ
- T1 sequence (P11047 34-1609 limits assumed, chain 3 of 3): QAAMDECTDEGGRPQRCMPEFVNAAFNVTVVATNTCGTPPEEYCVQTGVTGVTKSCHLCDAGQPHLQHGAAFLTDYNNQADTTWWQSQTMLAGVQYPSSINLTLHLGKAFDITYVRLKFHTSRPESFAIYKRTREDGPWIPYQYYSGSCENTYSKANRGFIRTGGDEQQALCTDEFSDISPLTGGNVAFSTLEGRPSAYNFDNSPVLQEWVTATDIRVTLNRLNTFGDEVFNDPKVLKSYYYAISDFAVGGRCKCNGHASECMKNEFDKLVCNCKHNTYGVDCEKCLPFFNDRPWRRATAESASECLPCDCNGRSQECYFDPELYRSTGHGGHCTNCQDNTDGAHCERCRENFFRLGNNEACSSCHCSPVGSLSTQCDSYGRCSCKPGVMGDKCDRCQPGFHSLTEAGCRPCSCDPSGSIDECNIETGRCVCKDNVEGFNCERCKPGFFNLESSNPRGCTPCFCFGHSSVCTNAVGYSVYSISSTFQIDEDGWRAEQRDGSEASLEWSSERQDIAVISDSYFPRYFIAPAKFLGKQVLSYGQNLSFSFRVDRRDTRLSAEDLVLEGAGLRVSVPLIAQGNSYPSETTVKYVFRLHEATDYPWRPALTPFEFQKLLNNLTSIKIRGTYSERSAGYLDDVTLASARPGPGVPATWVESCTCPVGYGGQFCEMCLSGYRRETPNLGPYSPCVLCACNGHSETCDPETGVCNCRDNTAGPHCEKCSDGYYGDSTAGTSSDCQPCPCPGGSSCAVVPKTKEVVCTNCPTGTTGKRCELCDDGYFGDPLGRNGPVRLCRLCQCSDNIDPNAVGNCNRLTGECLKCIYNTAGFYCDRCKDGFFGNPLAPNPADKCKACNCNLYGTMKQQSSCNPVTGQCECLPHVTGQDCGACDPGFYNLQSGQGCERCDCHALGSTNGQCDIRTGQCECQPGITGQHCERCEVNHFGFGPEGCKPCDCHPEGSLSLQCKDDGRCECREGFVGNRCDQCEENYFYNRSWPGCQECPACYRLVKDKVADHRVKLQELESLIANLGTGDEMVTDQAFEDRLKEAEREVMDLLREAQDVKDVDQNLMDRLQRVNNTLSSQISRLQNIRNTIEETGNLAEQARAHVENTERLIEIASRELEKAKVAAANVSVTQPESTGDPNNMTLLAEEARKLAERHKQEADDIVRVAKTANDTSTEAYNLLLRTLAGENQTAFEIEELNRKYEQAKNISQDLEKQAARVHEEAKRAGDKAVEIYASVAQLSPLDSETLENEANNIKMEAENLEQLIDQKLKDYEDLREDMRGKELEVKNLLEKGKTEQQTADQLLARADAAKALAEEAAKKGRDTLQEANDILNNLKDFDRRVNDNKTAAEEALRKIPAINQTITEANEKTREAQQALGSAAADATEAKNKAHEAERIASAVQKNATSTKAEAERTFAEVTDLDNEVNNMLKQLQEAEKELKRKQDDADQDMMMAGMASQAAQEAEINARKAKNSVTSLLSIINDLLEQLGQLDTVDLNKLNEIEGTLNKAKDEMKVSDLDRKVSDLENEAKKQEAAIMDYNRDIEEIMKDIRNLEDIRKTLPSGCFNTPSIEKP
- Assay Remarks: ELISA, GF coated, laminin 10 nM

- Binder: "fibroblast growth factor (FGF)-18 (ligand, UniProt O76093 28-207, looked up, mature; Purchased in mature form) EENVDFRIHVENQTRARDDVSRKQLRLYQLYSRTSGKHIQVLGRRISARGEDGDKYAQLLVETDTFGSQVRIKGKETEFYLCMNRKGKLVGKPDGTSKECVFIEKVLENNYTALMSAKYSGWYVGFTKKGRPRKGPKTRENQQDVHFMKRYPKGQPELQKPFKYTTVTKRSRRIRPTHPA"
  binding result: "binds"
- Binder: "platelet-derived growth factor (PDGF)-BB (ligand, human, UniProt P01127 82-190, looked up, mature; Purchased in mature form) SLGSLTIAEPAMIAECKTRTEVFEISRRLIDRTNANFLVWPPCVEVQRCSGCCNNRNVQCRPTQVQLRPVQVRKIEIVRKKPIFKKATVTLEDHLACKCETVAAARPVT"
  binding result: "binds"

Reference source: patent US20240092867A1
